compounds and their reported 2ED50 duration
Test system: KM mice
test: animal or person
Format: in vivo
measurement_context: KM mice, single tail vein injection at 2×ED50; time from disappearance to recovery of righting reflex

compound | target_entity | 2ED50 duration, min
CCOC(=O)OC(C)OC(=O)CC[C@@H]1N=C(c2ccccn2)c2cc(Br)c(Br)cc2-n2c(C)cnc21 (stereo partly shown) [Example 16] | KM mice | 1.57
COC(=O)C1(OC(=O)CC[C@@H]2N=C(c3ccccn3)c3cc(Cl)c(Br)cc3-n3c(C)cnc32)CC1 [Example 45] | KM mice | 2.20
COC(=O)C1(OC(=O)CC[C@@H]2N=C(c3ccccn3)c3ccc(C(F)(F)F)c(Cl)c3-n3c(C)cnc32)CC1 [Example 41] | KM mice | 3.53
COC(=O)C1(OC(=O)CC[C@@H]2N=C(c3ccccn3)c3cc(Cl)c(Cl)c(Cl)c3-n3c(C)cnc32)CC1 [Example 46] | KM mice | 1.21
Cc1cnc2n1-c1ccc(Br)cc1C(c1ccccn1)=N[C@H]2CCC(=O)OC(C)OC(=O)OC(C)C (stereo partly shown) [Example 55] | KM mice | 4.65
Cc1cc2c(c(C)c1C)C(c1ccccn1)=N[C@@H](CCC(=O)OCC(=O)OC(C)C)c1ncc(C)n1-2 [Example 76] | KM mice | 3.28
COC(=O)C(C)(C)OC(=O)CC[C@@H]1N=C(c2ccccn2)c2cc(Cl)c(Cl)c(Cl)c2-n2c(C)cnc21 [Example 30] | KM mice | 4.04
